Sourced from paper PMC5686067

- target-desc: the molecule itself
- test-description: AUC; sedimentation velocity, absorbance optics, 20 mM Tris-HCl pH 8.0, 100 mM NaCl, 2 mM DTT, 20 °C, c(s) model in Sedfit
Overview of recorded stoichiometry N for various proteins
Could you keep your reply to the number by itself?

Known results for proteins:
# protein, recorded-result
measured = [
    ("sNlpI-L38A (natural protein, E. coli, UniProt P0AFB1 20-294, looked up, NlpI, E. coli, residues S20-Q294 without the signal peptide, L38A in helix h1; source: E. coli BL21(DE3), purified (Ni-NTA, MonoQ, Superdex 200)) SNTSWRKSEVLAVPLQPTAQQEVILARMEQILASRALTDDERAQLLYERGVLYDSLGLRALARNDFSQALAIRPDMPEVFNYLGIYLTQAGNFDAAYEAFDSVLELDPTYNYAHLNRGIALYYGGRDKLAQDDLLAFYQDDPNDPFRSLWLYLAEQKLDEKQAKEVLKQHFEKSDKEQWGWNIVEFYLGNISEQTLMERLKADATDNTSLAEHLSETNFYLGKYYLSLGDLDSATALFKLAVANNVHNFVEHRYALLELSLLGQDQDDLAESDQQ", 2),
    ("sNlpI (soluble NlpI without its lipoprotein signal peptide) (natural protein, E. coli, UniProt P0AFB1 20-294, looked up, NlpI, E. coli outer-membrane lipoprotein with four tetratricopeptide repeats, residues S20-Q294, without the lipoprotein signal peptide; Homodimer by AUC and in the crystal. pET28a vector with N-terminal His-tag; no removal of the tag is described; also called WT-NlpI; wild-type sNlpI; source: E. coli BL21(DE3), purified (Ni-NTA, MonoQ, Superdex 200); cleared cell lysate in the pull-down; not …) SNTSWRKSEVLAVPLQPTLQQEVILARMEQILASRALTDDERAQLLYERGVLYDSLGLRALARNDFSQALAIRPDMPEVFNYLGIYLTQAGNFDAAYEAFDSVLELDPTYNYAHLNRGIALYYGGRDKLAQDDLLAFYQDDPNDPFRSLWLYLAEQKLDEKQAKEVLKQHFEKSDKEQWGWNIVEFYLGNISEQTLMERLKADATDNTSLAEHLSETNFYLGKYYLSLGDLDSATALFKLAVANNVHNFVEHRYALLELSLLGQDQDDLAESDQQ", 2),
]

Please examine the following record next.
Name the reported stoichiometry N value associated with the protein sNlpI-R82E (natural protein, E. coli, UniProt P0AFB1 20-294, looked up, NlpI, E. coli, residues S20-Q294 without the signal peptide, R82E in helix TPR1b; source: E. coli BL21(DE3), purified (Ni-NTA, MonoQ, Superdex 200)) SNTSWRKSEVLAVPLQPTLQQEVILARMEQILASRALTDDERAQLLYERGVLYDSLGLRALAENDFSQALAIRPDMPEVFNYLGIYLTQAGNFDAAYEAFDSVLELDPTYNYAHLNRGIALYYGGRDKLAQDDLLAFYQDDPNDPFRSLWLYLAEQKLDEKQAKEVLKQHFEKSDKEQWGWNIVEFYLGNISEQTLMERLKADATDNTSLAEHLSETNFYLGKYYLSLGDLDSATALFKLAVANNVHNFVEHRYALLELSLLGQDQDDLAESDQQ
2
